target: human P450 2C19 (Homo sapiens, UniProt P33261); assay: Metabolism (hydroxylation) of substrates using transformed yeast cells or microsomal fractions expressing human P450 2C19; conditions: microsomes
Sequence (P33261 whole entry): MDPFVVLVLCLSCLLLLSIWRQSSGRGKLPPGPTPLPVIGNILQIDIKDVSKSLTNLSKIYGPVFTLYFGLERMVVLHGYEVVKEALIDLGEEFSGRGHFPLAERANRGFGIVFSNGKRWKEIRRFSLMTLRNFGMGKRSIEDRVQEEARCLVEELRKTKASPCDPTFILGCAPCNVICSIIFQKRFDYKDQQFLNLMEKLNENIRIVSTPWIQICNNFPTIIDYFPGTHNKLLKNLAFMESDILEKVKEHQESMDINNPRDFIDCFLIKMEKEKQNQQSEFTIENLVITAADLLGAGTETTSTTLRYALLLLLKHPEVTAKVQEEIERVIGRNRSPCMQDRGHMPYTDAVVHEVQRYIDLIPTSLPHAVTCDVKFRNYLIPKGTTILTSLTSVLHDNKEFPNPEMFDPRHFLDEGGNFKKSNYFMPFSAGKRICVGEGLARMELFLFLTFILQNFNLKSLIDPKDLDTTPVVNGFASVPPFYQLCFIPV

| MOLECULE | Hydroxylation activity, human P450 2C19 |
| --- | --- |
| O=c1ccc2ccccc2o1 | − |
| CCCCNC(=O)NS(=O)(=O)c1ccc(C)cc1 [Tolbutamide] | + + |
| CCOc1ccc2ccc(=O)oc2c1 | + |
| CC(=O)Nc1ccccc1 [Acetanilide] | + + |
| N=C(N)N1CCc2ccccc2C1 | − |

====

biological target: human P450 2C18 (Homo sapiens, UniProt P33260); experiment: Metabolism (hydroxylation) of substrates using transformed yeast cells or microsomal fractions expressing human P450 2C18; conditions: microsomes
Sequence (P33260 26-490): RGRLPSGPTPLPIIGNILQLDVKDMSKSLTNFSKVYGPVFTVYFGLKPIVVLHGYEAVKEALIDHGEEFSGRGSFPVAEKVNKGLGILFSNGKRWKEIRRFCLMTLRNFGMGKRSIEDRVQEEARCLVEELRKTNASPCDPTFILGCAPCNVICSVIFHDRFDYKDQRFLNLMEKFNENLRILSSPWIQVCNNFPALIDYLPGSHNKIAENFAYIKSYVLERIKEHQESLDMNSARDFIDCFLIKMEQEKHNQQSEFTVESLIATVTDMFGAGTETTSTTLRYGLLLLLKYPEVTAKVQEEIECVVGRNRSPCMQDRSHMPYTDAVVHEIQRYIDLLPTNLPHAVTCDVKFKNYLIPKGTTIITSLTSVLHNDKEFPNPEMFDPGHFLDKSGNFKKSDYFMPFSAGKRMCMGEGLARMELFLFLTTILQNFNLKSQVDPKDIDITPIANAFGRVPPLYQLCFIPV
METRIC NAME: Hydroxylation activity, human P450 2C18

| COMPOUND | RESULT VALUE |
| --- | --- |
| CC(=O)Nc1ccccc1 [Acetanilide] | + + |
| CCCCNC(=O)NS(=O)(=O)c1ccc(C)cc1 [Tolbutamide] | + |
| CCOc1ccc2ccc(=O)oc2c1 | + |
| N=C(N)N1CCc2ccccc2C1 | − |
| O=c1ccc2ccccc2o1 | − |

====

test system: human P450 2D6; experiment: Metabolism (hydroxylation) of substrates using transformed yeast cells or microsomal fractions expressing human P450 2D6; settings: microsomes

| COMPOUND | Hydroxylation activity, human P450 2D6 |
| --- | --- |
| CC[C@@]1(c2ccccc2)NC(=O)N(C)C1=O [S-Mephenytoin] | − |
| CC(=O)Nc1ccccc1 [Acetanilide] | + + + |
| O=c1ccc2ccccc2o1 [Coumarin] | − |
| CCOc1ccc2ccc(=O)oc2c1 [7-Ethoxycoumarin] | + + |
| N=C(N)N1CCc2ccccc2C1 [Debrisoquine] | + + + |
| CCCCNC(=O)NS(=O)(=O)c1ccc(C)cc1 [Tolbutamide] | − |

====

molecular target: human P450 2B6 (Homo sapiens, UniProt P20813); assay: Metabolism (hydroxylation) of substrates using transformed yeast cells or microsomal fractions expressing human P450 2B6; conditions: microsomes
Sequence (P20813 whole entry): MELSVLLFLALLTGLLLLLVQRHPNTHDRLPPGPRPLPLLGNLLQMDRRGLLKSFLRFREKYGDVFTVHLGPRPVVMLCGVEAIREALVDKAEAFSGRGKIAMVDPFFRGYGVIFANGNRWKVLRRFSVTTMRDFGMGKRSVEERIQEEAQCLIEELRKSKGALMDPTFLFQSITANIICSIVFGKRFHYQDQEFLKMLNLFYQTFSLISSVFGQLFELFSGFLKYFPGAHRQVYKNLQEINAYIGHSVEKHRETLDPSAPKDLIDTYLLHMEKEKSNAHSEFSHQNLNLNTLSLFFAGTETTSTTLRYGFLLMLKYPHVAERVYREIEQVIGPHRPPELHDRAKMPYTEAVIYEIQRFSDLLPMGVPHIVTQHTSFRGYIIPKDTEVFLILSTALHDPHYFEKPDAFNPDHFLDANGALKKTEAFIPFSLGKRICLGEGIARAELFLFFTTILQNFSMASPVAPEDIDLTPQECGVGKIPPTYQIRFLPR

| MOLECULE | Hydroxylation activity, human P450 2B6 |
| --- | --- |
| CC(=O)Nc1ccccc1 [Acetanilide] | + + |
| CCOc1ccc2ccc(=O)oc2c1 [7-Ethoxycoumarin] | + + + |
| N=C(N)N1CCc2ccccc2C1 [Debrisoquine] | − |
| O=c1ccc2ccccc2o1 [Coumarin] | − |
| CCCCNC(=O)NS(=O)(=O)c1ccc(C)cc1 [Tolbutamide] | − |
